pIC50: −log10 of the molar value.
I'd appreciate it if you could supply pIC50 values for the items below.

Query the reported pIC50 for IGF1R tyrosine kinase (Homo sapiens, UniProt P08069); item: CN1CCC(N2C(=O)c3cc4nc(-c5c(NC[C@@H](O)COc6ccc(F)cc6)cc[nH]c5=O)[nH]c4cc3C2=O)CC1
5.30 to 6.30

Item O=C1c2cc3nc(-c4c(NC[C@@H](O)c5cccc(Cl)c5)cc[nH]c4=O)[nH]c3cc2C(=O)N1CCCn1ccnc1 with IGF1R tyrosine kinase (Homo sapiens, UniProt P08069) - pIC50?
5.30 to 6.30

// map CN1CCC(N2C(=O)c3cc4nc(-c5c(NC[C@@H](O)COc6ccc7c8c6CCCN8CCC7)cc[nH]c5=O)[nH]c4cc3C2=O)CC1 to recorded pIC50 (system: IGF1R tyrosine kinase (Homo sapiens, UniProt P08069))
Sequence (P08069 999-1274 limits assumed): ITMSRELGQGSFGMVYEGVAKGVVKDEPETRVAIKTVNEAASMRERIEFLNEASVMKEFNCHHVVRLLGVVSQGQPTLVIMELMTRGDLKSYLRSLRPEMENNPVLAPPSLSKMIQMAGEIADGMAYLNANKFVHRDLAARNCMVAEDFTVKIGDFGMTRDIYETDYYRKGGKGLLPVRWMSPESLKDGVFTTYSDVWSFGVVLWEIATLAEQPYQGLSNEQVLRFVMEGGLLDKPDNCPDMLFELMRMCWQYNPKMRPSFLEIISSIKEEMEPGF
5.30 to 6.30

API: value(readout=pIC50, system=IGF1R tyrosine kinase (Homo sapiens, UniProt P08069)) for record CN1CCC(N2C(=O)c3cc4nc(-c5c(NC[C@@H](O)COc6cccc(Cl)c6F)cc[nH]c5=O)[nH]c4cc3C2=O)CC1
5.30 to 6.30

I'm curious: which pIC50 was measured for CN1CCC(N2Cc3cc4[nH]c(-c5c(NC[C@@H](O)COc6ccccc6Br)cc[nH]c5=O)nc4cc3C2=O)CC1 tested on IGF1R tyrosine kinase (Homo sapiens, UniProt P08069)?
> 6.30

API: value(readout= pIC50, system= IGF1R tyrosine kinase (Homo sapiens, UniProt P08069), query= COc1ccc(OCC(O)CNc2cc[nH]c(=O)c2-c2nc3cc4c(cc3[nH]2)C(=O)N(C2CCN(C)CC2)C4=O)cc1 (stereo not shown) )
> 6.30

Which pIC50 is reported with IGF1R tyrosine kinase (Homo sapiens, UniProt P08069) for this entry: CN1CCC(N2Cc3cc4nc(-c5c(NC[C@@H](O)COc6cc7c(cc6Cl)OCO7)cc[nH]c5=O)[nH]c4cc3C2=O)CC1 ?
> 6.30

# query: pIC50 | item Cc1cc(C)c(OC[C@H](O)CNc2cc[nH]c(=O)c2-c2nc3cc4c(cc3[nH]2)C(=O)N(C2CCN(C)CC2)C4=O)cc1Cl | system: IGF1R tyrosine kinase (Homo sapiens, UniProt P08069)
5.30 to 6.30

Please state recorded pIC50 (tested on IGF1R tyrosine kinase (Homo sapiens, UniProt P08069)) of CN1CCC(N2C(=O)c3cc4nc(-c5c(NC[C@@H](O)COc6ccc(F)c(Cl)c6)ccnc5O)[nH]c4cc3C2=O)CC1
5.30 to 6.30

Recall the recorded pIC50 for CN1CCC(N2C(=O)c3cc4nc(-c5c(NC[C@@H](O)COc6cccc7c6OC(F)C(F)(F)O7)cc[nH]c5=O)[nH]c4cc3C2=O)CC1 (stereo partly shown) with IGF1R tyrosine kinase (Homo sapiens, UniProt P08069) and state it.
> 6.30

Provide the documented pIC50 with IGF1R tyrosine kinase (Homo sapiens, UniProt P08069) as the system for Cc1ccc(OC[C@H](O)CNc2ccnc(O)c2-c2nc3cc4c(cc3[nH]2)C(=O)N(C2CCN(C)CC2)C4=O)cn1
5.30 to 6.30

Write down the reported pIC50 of CCN1CCC(N2Cc3cc4nc(-c5c(NC[C@@H](O)COc6ccc(C)cc6C)cc[nH]c5=O)[nH]c4cc3C2=O)CC1 , test system: IGF1R tyrosine kinase (Homo sapiens, UniProt P08069).
> 6.30

Look up pIC50 with IGF1R tyrosine kinase (Homo sapiens, UniProt P08069) for this compound: CN1CCC(N2Cc3cc4[nH]c(-c5c(NC[C@@H](O)COc6ccc(F)cc6Br)cc[nH]c5=O)nc4cc3C2=O)CC1
> 6.30

Form entry - test system: IGF1R tyrosine kinase (Homo sapiens, UniProt P08069); read-out: pIC50; compound: Cc1ccc(OC[C@H](O)CNc2cc[nH]c(=O)c2-c2nc3c(C)c4c(cc3[nH]2)C(=O)N(C2CCN(C)CC2)C4=O)c(C)c1
> 6.30

Item: Cc1ccc(OC[C@@H](O)CNc2cc[nH]c(=O)c2-c2nc3cc4c(cc3[nH]2)C(=O)N([C@H]2CCN(C)C2)C4=O)c(C)c1 Test system: IGF1R tyrosine kinase (Homo sapiens, UniProt P08069) Read-out: pIC50 Value: ?
> 6.30

Form field - read-out: pIC50; system: IGF1R tyrosine kinase (Homo sapiens, UniProt P08069); submitted item: CSCc1cc(C)cc(C)c1OC[C@H](O)CNc1cc[nH]c(=O)c1-c1nc2cc3c(cc2[nH]1)C(=O)N(C1CCN(C)CC1)C3=O
5.30 to 6.30

Param readout= pIC50; system= IGF1R tyrosine kinase (Homo sapiens, UniProt P08069); entry= Cc1cc(C)c(OC[C@H](O)CNc2cc[nH]c(=O)c2-c2nc3cc4c(cc3[nH]2)C(=O)N(C2CCN(C)CC2)C4=O)c(C)c1 ; returns value.
> 6.30

# get_value(readout= pIC50, system= IGF1R tyrosine kinase (Homo sapiens, UniProt P08069)) for Cc1ccc(OC[C@H](O)CNc2cc[nH]c(=O)c2-c2nc3cc4c(cc3[nH]2)C(=O)N(CCCN2CCCC2)C4=O)c(C)c1
> 6.30

Form entry - test system: IGF1R tyrosine kinase (Homo sapiens, UniProt P08069); read-out: pIC50; compound: O=C1c2cc3nc(-c4c(NC[C@@H](O)c5cccc(Cl)c5)cc[nH]c4=O)[nH]c3cc2C(=O)N1CCO
5.30 to 6.30

What is its pIC50 for IGF1R tyrosine kinase (Homo sapiens, UniProt P08069)? Entry: COc1cc(C)ccc1OC[C@H](O)CNc1ccnc(O)c1-c1nc2cc3c(cc2[nH]1)C(=O)N(C1CCN(C)CC1)C3=O
> 6.30

Given the entry Cc1c(Cl)cccc1OC[C@H](O)CNc1cc[nH]c(=O)c1-c1nc2c(C)c3c(cc2[nH]1)C(=O)N(C1CCN(C)CC1)C3=O , what pIC50 was observed with IGF1R tyrosine kinase (Homo sapiens, UniProt P08069)?
5.30 to 6.30

Short answer please: pIC50, IGF1R tyrosine kinase (Homo sapiens, UniProt P08069), entry CN1CCCC1CCN1C(=O)c2cc3nc(-c4c(NC[C@@H](O)c5cccc(Cl)c5)cc[nH]c4=O)[nH]c3cc2C1=O (stereo partly shown)
> 6.30

So what pIC50 did O=C1c2cc3nc(-c4c(NC[C@@H](O)c5cccc(Cl)c5)cc[nH]c4=O)[nH]c3cc2C(=O)N1[C@H]1CN2CCC1CC2 get with IGF1R tyrosine kinase (Homo sapiens, UniProt P08069)?
> 6.30

// map C[C@H](O)CN1C(=O)c2cc3nc(-c4c(NC[C@@H](O)c5cccc(Cl)c5)cc[nH]c4=O)[nH]c3cc2C1=O to recorded pIC50 (system: IGF1R tyrosine kinase (Homo sapiens, UniProt P08069))
4.82 to 5.30

Any idea what pIC50 came out for CN(C)CCN1CCC(N2C(=O)c3cc4nc(-c5c(NC[C@@H](O)COc6c(F)ccc(Cl)c6F)cc[nH]c5=O)[nH]c4cc3C2=O)CC1 on IGF1R tyrosine kinase (Homo sapiens, UniProt P08069)?
> 6.30
